Assay: Phase I plasma pharmacokinetics in patients
Assay type: in vivo, human
Conditions: human, plasma, po, 800 mg, Day 7, 800 mg b.i.d. p.o. (n=8), median, course 1; read-out: t1/2
MEASURE_NAME: half-life (h)
Answers are plain numbers, in h.

Indicate the recorded half-life value for this compound: CC[C@H](CO)Nc1nc(NCc2ccccc2)c2ncn(C(C)C)c2n1 [Seliciclib] 3.48

* * *

Assay: Phase I plasma pharmacokinetics in patients
Assay type: in vivo, human
Conditions: human, plasma, po, 800 mg, Day 1, 800 mg b.i.d. p.o. (n=12), median, course 1; read-out: t1/2
MEASURE_NAME: half-life (h)
Give bare numbers, in h.

Indicate the recorded half-life value for this compound: CC[C@H](CO)Nc1nc(NCc2ccccc2)c2ncn(C(C)C)c2n1 [Seliciclib] 3.87

* * *

Test: Phase I plasma pharmacokinetics in patients
Assay type: in vivo, human
Conditions: human, plasma, po, 100 mg, Day 7, 100 mg b.i.d. p.o. (n=3), mean, course 1
MEASURE_NAME: AUC(0-inf) (ng·h/mL)
Answers are plain numbers, in ng·h/mL.

Indicate the recorded AUC(0-inf) value for this compound: `CC[C@H](CO)Nc1nc(NCc2ccccc2)c2ncn(C(C)C)c2n1` 2890

* * *

Assay: Phase I plasma pharmacokinetics in patients
Type: in vivo, human
Conditions: human, plasma, po, 800 mg, Day 1, 800 mg b.i.d. p.o. (n=12), median, course 1; read-out: Tmax (converted)
Procedure: For PK analysis, blood samples (approximately 8 ml each) were collected in tubes with lithium heparin anticoagulant at the following time points: pre-dose and 0.5, 1, 1.5, 2, 4, 8, 12 (pre-second dose), 13, 14 and 24 h (pre-dose if day 2) after dosing on both days 1 and 7 of the first cycle. The samples were then centrifuged at 3000 r.p.m at 4°C for 10 min, the plasma transferred to 2 ml cryovials and frozen at −70°C until analysis. […]
MEASURE_NAME: Tmax

Indicate the recorded Tmax value for this molecule: `CC[C@H](CO)Nc1nc(NCc2ccccc2)c2ncn(C(C)C)c2n1` 2 h

* * *

Assay: Phase I plasma pharmacokinetics in patients
Type: in vivo, human
Conditions: human, plasma, po, 800 mg, Day 7, 800 mg b.i.d. p.o. (n=8), median, course 1
MEASURE_NAME: AUC(0-inf) (ng·h/mL)
Answers are plain numbers, in ng·h/mL.

Indicate the recorded AUC(0-inf) value for this compound: CC[C@H](CO)Nc1nc(NCc2ccccc2)c2ncn(C(C)C)c2n1 [Seliciclib] 21300

* * *

Experiment: Phase I plasma pharmacokinetics in patients
Type: in vivo, human
Conditions: human, plasma, po, 200 mg, Day 7, 200 mg b.i.d. p.o. (n=6), mean, course 1; read-out: Tmax (converted)
MEASURE_NAME: Tmax (h)
One number for each entry, in h.

Indicate the recorded Tmax value for this compound: `CC[C@H](CO)Nc1nc(NCc2ccccc2)c2ncn(C(C)C)c2n1` 1.03

* * *

Experiment: Phase I plasma pharmacokinetics in patients
Type: in vivo, human
Details: human, plasma, oral, similar in all dose groups; read-out: terminal (elimination) half-life
MEASURE_NAME: half-life

Indicate the recorded half-life value for this compound: `CC[C@H](CO)Nc1nc(NCc2ccccc2)c2ncn(C(C)C)c2n1` 120 to 300 min

Every entry's value here was drawn from paper PMC2360206.
